From: ChEMBL document CHEMBL4673352

Assay: Solubility of compound in phosphate buffer at pH 7.4 using dried form of sample
Format: physicochemical
Conditions: phosphate buffer, read-out: solubility
Kindly supply the reported solubility values for the records listed here.
Numbers only, in µM.

cpd_smiles=CC(=O)N[C@@H]1CCC[C@H](C(=O)Nc2cc(-c3cnn4c3CC(C)(C)C4)ccn2)C1 quantity_unit=µM value_measured=970
cpd_smiles=CC(=O)N[C@@H]1CCC[C@H](C(=O)Nc2cc(-c3cnn4c3CC(C)(C)CC4)ccn2)C1 quantity_unit=µM value_measured=640
cpd_smiles=CC(=O)N[C@@H]1CCC[C@H](C(=O)Nc2cc(-c3cnn4c3CC(C)(C)C4)c(Cl)cn2)C1 quantity_unit=µM value_measured=150

solubility in this record for CC(=O)N[C@@H]1CCC[C@H](C(=O)Nc2cc(-c3cnc4n3CCCC4)c(Cl)cn2)C1 : 600
